Sourced from patent US8871753B2

study system: human JAK2 (a.a. 828-1132) (Homo sapiens)
Construct: JAK2 (a.a. 828-1132); His tag (N); made in house; host or cells: insect cells (baculovirus)
Sequence (O60674 828-1132): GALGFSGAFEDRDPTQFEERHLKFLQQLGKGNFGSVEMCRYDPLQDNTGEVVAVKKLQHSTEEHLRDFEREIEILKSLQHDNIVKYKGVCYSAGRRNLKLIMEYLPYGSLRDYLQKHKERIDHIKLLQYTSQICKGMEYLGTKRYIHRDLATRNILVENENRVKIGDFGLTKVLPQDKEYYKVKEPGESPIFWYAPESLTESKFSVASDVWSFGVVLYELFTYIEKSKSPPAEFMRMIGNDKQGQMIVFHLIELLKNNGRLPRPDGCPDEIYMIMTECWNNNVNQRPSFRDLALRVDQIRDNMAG
procedure details: In vitro JAK kinase assay (HTRF, phosphorylation of a biotinylated peptide), JAK2
Type: biochemical
reported conditions: Table D1
Structures can show the parent of a compound that is named as a salt.
readout label: IC50 (nM)
Lab book: enter the figure in nM, no units written.

molecule	IC50 (nM)
CN1c2cccc(c2)CCc2cncc(c2)Nc2nccc1n2 [Example D224, bis(trifluoroacetate)]	126

Request: Can you share its IC50? I mean this molecule: CC(=O)N1Cc2cccc(c2)Nc2ncc(Cl)c(n2)Nc2cccc(c2)C1 [Example D74, trifluoroacetate]
Result: 83

Request: Same read-out for O=C(Nc1ccccc1)N1CCN(c2cc(-c3cc4cc(c3)Nc3ncc(Cl)c(n3)Nc3cccc(c3)OCC4)ccn2)CC1 [Example D44, bis(trifluoroacetate)] ?
Result: 1.5

====

study system: TYK2 (Homo sapiens, UniProt P29597)
Sequence (P29597 whole entry): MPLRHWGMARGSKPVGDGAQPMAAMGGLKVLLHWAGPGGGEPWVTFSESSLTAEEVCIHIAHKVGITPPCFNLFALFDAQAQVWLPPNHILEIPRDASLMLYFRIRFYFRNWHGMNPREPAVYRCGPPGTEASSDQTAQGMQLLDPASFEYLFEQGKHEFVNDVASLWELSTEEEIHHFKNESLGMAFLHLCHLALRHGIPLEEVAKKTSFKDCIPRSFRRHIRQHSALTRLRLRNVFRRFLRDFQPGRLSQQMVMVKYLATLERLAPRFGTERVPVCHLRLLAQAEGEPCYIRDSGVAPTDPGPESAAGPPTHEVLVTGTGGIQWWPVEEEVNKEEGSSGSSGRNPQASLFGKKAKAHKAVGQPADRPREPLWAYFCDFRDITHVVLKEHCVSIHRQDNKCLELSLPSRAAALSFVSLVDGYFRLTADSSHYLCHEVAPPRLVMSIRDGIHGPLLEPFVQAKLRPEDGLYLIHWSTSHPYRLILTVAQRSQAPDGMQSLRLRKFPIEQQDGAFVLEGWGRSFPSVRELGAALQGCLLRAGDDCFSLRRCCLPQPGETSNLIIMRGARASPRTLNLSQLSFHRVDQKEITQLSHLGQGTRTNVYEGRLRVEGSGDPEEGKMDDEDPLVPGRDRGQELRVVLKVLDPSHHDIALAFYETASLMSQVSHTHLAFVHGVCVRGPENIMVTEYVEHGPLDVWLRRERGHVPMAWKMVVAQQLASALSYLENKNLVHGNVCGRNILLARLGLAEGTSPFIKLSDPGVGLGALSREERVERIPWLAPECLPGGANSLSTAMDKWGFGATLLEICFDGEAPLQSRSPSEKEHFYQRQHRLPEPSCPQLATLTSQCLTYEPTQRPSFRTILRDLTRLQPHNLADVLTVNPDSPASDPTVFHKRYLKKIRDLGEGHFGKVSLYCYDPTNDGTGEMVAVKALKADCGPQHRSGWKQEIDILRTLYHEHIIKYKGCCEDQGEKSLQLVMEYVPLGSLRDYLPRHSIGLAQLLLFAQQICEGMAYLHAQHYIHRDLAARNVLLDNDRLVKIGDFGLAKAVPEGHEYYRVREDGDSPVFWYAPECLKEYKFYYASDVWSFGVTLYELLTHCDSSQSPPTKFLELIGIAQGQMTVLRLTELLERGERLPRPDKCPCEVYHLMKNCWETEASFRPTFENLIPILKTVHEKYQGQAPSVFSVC
procedure details: TYK2 kinase inhibition (Table A1)
Format: biochemical
reported conditions: Table D1
Listed here: items and their measured IC50.

compound	IC50
O=C(Cn1c(=O)oc2c3cc(cc21)Nc1nc(ncc1Cl)Nc1cccc(c1)CC3)N1CCN(c2ccccc2)CC1 [Example D188, bis(trifluoroacetate)]	> 1000 nM
COCC(=O)N1CCN(C(=O)COc2ccc3cc2CCc2cncc(c2)Nc2ncc(Cl)c(n2)N3)CC1 [Example D262, bis(trifluoroacetate)]	> 400 nM
Clc1cnc2nc1Nc1ccc(OCC3CCNCC3)c(c1)CCc1cncc(c1)N2 [Example D225, tris(trifluoroacetate)]	> 400 nM

From here, focus on the item given below.
Request: What value of IC50 has been recorded for this entry: Cc1oncc1C(=O)N1CCC(CCOc2ccc3cc2CCc2cncc(c2)Nc2ncc(Cl)c(n2)N3)CC1 [Example D178, bis(trifluoroacetate)]
Result: > 400 nM

====

study system: human JAK1 (a.a. 837-1142) (Homo sapiens, UniProt P23458)
Construct: human JAK1 (a.a. 837-1142); His tag (N); made in house; host or cells: insect cells (baculovirus)
Sequence (P23458 849-1154): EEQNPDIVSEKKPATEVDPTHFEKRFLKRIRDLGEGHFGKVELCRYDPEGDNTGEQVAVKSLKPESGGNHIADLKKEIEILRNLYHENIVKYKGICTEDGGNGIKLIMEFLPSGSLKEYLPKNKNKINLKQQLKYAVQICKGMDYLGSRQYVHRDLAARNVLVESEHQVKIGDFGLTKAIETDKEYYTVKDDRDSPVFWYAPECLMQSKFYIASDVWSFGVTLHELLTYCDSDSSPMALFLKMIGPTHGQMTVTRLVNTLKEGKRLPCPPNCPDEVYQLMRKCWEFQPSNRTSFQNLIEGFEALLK
procedure details: In vitro JAK kinase assay (HTRF, phosphorylation of a biotinylated peptide), JAK1
Format: biochemical
reported conditions: method AA1 (90 μM ATP) or AA2 (1000 μM ATP), not stated per value; read-out: JAK1 IC50
Structures can show the parent of a compound that is named as a salt.
Recorded IC50 for the following compounds
Give just the number in nM; leave the unit off.

compound	IC50, nM
CC(C)S(=O)(=O)N1CCC(CC(=O)Nc2ccc3cc2CCc2cccc(c2)Nc2ncc(Cl)c(n2)N3)CC1 [Example A82, trifluoroacetate]	7.3
O=C(CC1CCNCC1)Nc1ccc2cc1CCc1cccc(c1)Nc1ncc(Cl)c(n1)N2 [Example A46, bis(trifluoroacetate)]	10
NS(=O)(=O)N1CC[C@@H](C(=O)Nc2ccc3cc2CCc2cccc(c2)Nc2ncc(Cl)c(n2)N3)C1 [Example A74, trifluoroacetate]	6

Let us move to another entry and its IC50.
Request: # get_value(readout='IC50', item= Cc1noc(C)c1NC(=O)N1CCC(CC(=O)Nc2ccc3cc2CCc2cncc(c2)Nc2ncc(Cl)c(n2)N3)CC1 [Example A145, bis(trifluoroacetate)] )
Result: 16

====

study system: human JAK2 (a.a. 828-1132) (Homo sapiens)
Construct: JAK2 (a.a. 828-1132); His tag (N); made in house; host or cells: insect cells (baculovirus)
procedure details: In vitro JAK kinase assay (HTRF, phosphorylation of a biotinylated peptide), JAK2
Format: biochemical
reported conditions: Table B1
Counter-ions that a name gives are not always drawn.
readout label: IC50 (nM)
Entry rule: numbers only, all in nM.

molecule	IC50, nM
Cn1cccc1C(=O)Nc1ccc2cc1CCc1cccc(c1)Nc1ncc(Cl)c(n1)N2 [Example B50, trifluoroacetate]	0.28
Cc1cccc(Cl)c1NC(=O)Nc1ccc2cc1CCc1cccc(c1)Nc1ncc(Cl)c(n1)N2 [Example B122, trifluoroacetate]	6.7

Request: // query IC50 value for entry CS(=O)(=O)NCCNC(=O)Nc1ccc2cc1CCc1cccc(c1)Nc1ncc(Cl)c(n1)N2 [Example B187, trifluoroacetate]
Result: 0.4

Request: What do we get for CNC(=O)Nc1ccc2cc1CCc1cccc(c1)Nc1ncc(Cl)c(n1)N2 [Example B114, trifluoroacetate] ?
Result: 2.9

Request: Moving on to Cc1cccc(NC(=O)Nc2ccc3cc2CCc2cccc(c2)Nc2ncc(Cl)c(n2)N3)c1 [Example B90, trifluoroacetate]
Result: 7.7

Request: Moving on to the next molecule: OCc1ccc2cc1CCc1cccc(c1)Nc1ncc(Cl)c(n1)N2 [Example B23, trifluoroacetate]
Result: 0.8

Request: Entry to check: Cc1cc(C(=O)N2CCC(NC(=O)Nc3ccc4cc3CCc3cccc(c3)Nc3ncc(Cl)c(n3)N4)CC2)no1 [Example B263, trifluoroacetate]
Result: 9.3
